In this section, each of the compounds is paired with its reported pIC50.
tested on: MDA-MB-415; experiment: cells; type: functional, cell-based, Homo sapiens; conditions: Homo sapiens, MDA-MB-415
pIC50: −log10 of the molar value. Structures can show the parent of a compound that is named as a salt.
READOUT_TYPE: pIC50

>>> val("CCN(CC)CCCCNc1ncc2cc(-c3cc(OC)cc(OC)c3)c(NC(=O)NC(C)(C)C)nc2n1")
"< 5.70"
>>> val("CCC/C=C/C=C/C(=O)O[C@H]1/C(=C/C(=O)OC)C[C@H]2C[C@H]([C@@H](C)O)OC(=O)C[C@H](O)C[C@@H]3C[C@H](OC(C)=O)C(C)(C)[C@](O)(C[C@@H]4C/C(=C/C(=O)OC)C[C@H](/C=C/C(C)(C)[C@]1(O)O2)O4)O3")
"< 8.10"
>>> val("Cn1cnc2c(F)c(Nc3ccc(Br)cc3Cl)c(C(=O)NOCCO)cc21")
"< 5.40"
>>> val("COc1cccc2c1C(=O)c1c(O)c3c(c(O)c1C2=O)C[C@@](O)(C(=O)CO)C[C@@H]3O[C@H]1C[C@H](N)[C@H](O)[C@H](C)O1")
"< 5.99"
>>> val("Oc1ccc2ccccc2c1SSc1c(O)ccc2ccccc12")
"< 4.49"
>>> val("Cc1cc([N+](=O)[O-])ccc1NS(=O)(=O)c1cc(Cl)ccc1Cl")
5.33
>>> val("CC(C)CCN1c2nc(Nc3cc(F)c(O)c(F)c3)ncc2N(C)C(=O)C1C (centres undefined)")
"< 5.30"
>>> val("C=C(c1ccc(C(=O)O)cc1)c1cc2c(cc1C)C(C)(C)CCC2(C)C")
"< 5.10"
>>> val("COC1=CC(c2cc3ccccc3[nH]2)=N/C1=C\\c1[nH]c(C)cc1C [OBATOCLAX MESYLATE]")
5.66

Data credit: ChEMBL document CHEMBL1201861
